- System name: T1, VEGFR-3-Fc (UniProt P35916 25-328)
- T1 construct: domain: first three Ig domains; conditioned supernatant of 293T cells; also called VEGFR-3-Fc fusion protein; not shown: Fc fragment of the pIg vector
- T1 sequence (looked up): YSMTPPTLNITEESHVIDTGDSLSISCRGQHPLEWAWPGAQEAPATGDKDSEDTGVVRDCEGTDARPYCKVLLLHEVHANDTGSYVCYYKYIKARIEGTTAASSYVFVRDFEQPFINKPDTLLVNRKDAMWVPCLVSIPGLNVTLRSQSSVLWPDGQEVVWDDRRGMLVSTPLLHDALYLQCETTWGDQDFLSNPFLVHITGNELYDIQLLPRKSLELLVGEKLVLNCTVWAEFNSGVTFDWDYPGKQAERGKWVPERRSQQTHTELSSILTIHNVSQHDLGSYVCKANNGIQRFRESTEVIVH
- Assay summary: receptor-Fc IP
Measured metric: binding result

>>> result("62-16 (ligand) GQNHHEVVKFMDVYQRSYCHPREVCIDVGKEFGVATNTFFKPPCVSVYRCGGCCNSEGLQCMNTSTSYLSKTLFEITVPLSQGPKPVTISFANHTSCRCMSKLD")
"no binding"
>>> result("31-11 (ligand) GQNHHEVVKSIDNEWRKTQCMPIETLVDIFQEYPDEIEYIFKPSCVPLMRCGGCCNSEGLQCVPTEESNITMQIMRITVPLSQGPKPVTISFLQHNKCECRPKKD")
"no binding"
>>> result("21-3 (ligand) AHYNTEILKSIDNEWRKTQCMPREVCIDVGKEYPDEIEYIFKPSCVPLMRCGGCCNSEGLQCVPTEESNITMQIMRIKPHQGQHIGEMSFLQHNKCECRPKKD")
"no binding"
>>> result("23-5 (ligand) AHYNTEILKSIDNEWRKTQCMPREVCIDVGKEYPDEIEYIFKPPCVSVYRCGGCCNDEGLECVPTEESNITMQIMRIKPHQGQHIGEMSFANHTSCRCMSKLD")
"no binding"
